- assay-name: Plasma pharmacokinetics after oral multi-dose anatabine polacrilex
- Type: in vivo, Sprague-Dawley rats
- assay-setup: male, Sprague-Dawley, rat, plasma, oral, 0.2 mg/kg, Avg. Conc. of anatabine in plasma, dose group 0.2, male, 60 min
endpoint-name: concentration at 60 min (ng/mL)
Quick reminder: number only, in ng/mL, skip the unit.

What value of measured concentration at 60 min is listed for C1=CCC(c2cccnc2)NC1 (racemic) [Anatabine, 1,2,3,6-tetrahydro-[2,3′]bipyridinyl] ?
30

---

- assay-name: Plasma toxicokinetics after single i.v. bolus
- Type: in vivo, Sprague-Dawley rats
- assay-setup: female, Sprague-Dawley, rat, plasma, intravenous, 0.75 mg/kg, Anatabine 0.75 mg/kg; female; 8 hr; read-out: Avg. Conc. rat plasma
endpoint-name: concentration at 8 h (µg/mL)
# unit: µg/mL | format: bare number

What does the record list as concentration at 8 h for C1=CCC(c2cccnc2)NC1 (racemic) [Anatabine, 1,2,3,6-tetrahydro-[2,3′]bipyridinyl] ?
0.011

Attribution: patent US20120196899A1
